Target: T1, GST-human NOGO-A56 (human, UniProt Q9NQC3 586-785)
T1 construct: GST-tagged fusion expressed in E. coli BL21 from pGEX-6P1; also called hNOGO; human NOGO 5+6 GST; not shown: Glutathione S-transferase tag encoded by vector pGEX-6P1 (N-terminal, with vector linker)
T1 sequence: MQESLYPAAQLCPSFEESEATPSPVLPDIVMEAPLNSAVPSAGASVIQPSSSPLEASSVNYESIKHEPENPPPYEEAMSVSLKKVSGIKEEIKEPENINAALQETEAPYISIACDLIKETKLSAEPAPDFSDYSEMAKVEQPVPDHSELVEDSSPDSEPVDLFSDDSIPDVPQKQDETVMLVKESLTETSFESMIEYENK
Assay: SPR (Biacore), GST-human NOGO-A56 immobilised, purified antibody as analyte; single experiment
Classify by measured koff: met if it is equal to or exceeds 0.007 s⁻¹, not met if it is smaller.

INPUT: Is koff for H1L11 (antibody, human IgG1, kappa, V domains shown) VH: QVQLVQSGAEVKKPGASVKVSCKASGYTFTSYWMHWVRQAPGQGLEWMGNINPSNGGTNYNEKFKSRVTMTRDTSTSTVYMELSSLRSEDTAVYYCELGQGYWGQGTLVTVSS VL: DIVITQSPLSLPVTLGQPASISCRSSKSLLYKDGKTYLNWFQQRPGQSPQLLIYLMSTRASGVPDRFSGGGSGTDFTLKISRVEAEDVGVYYCQQLVEYPLTFGQGTKLEIKR at or above 0.007 s⁻¹?
OUTPUT: met

INPUT: Say whether H6L13 (antibody, human IgG1, kappa, V domains shown) VH: QVQLVQSGAEVKKPGASVKVSCKASGYTFTSYWMHWVRQAPGQGLEWIGNINPSNGGTNYNEKFKSRATMTRDTSTSTAYMELSSLRSEDTAVYYCELGQGYWGQGTLVTVSS VL: DIVMTQSPLSLPVTLGQPASISCRSSKSLLYKDGKTYLNWFQQRPGQSPQLLIYLMSTRASGVPDRFSGGGSGTDFTLKISRVEAEDVGVYYCQQLVEYPLTFGQGTKLEIKR shows koff of 0.007 s⁻¹ or more.
OUTPUT: met

INPUT: Quick check, koff >= 0.007 s⁻¹? H20L16 (antibody, human IgG1, kappa, V domains shown, human gamma1 mutated constant region, human kappa; also called H20L16 FL) VH: QVQLVQSGAEVKKPGASVKVSCKASGYTFTSYWMHWVRQAPGQGLEWIGNINPSNGGTNYNEKFKSKATMTRDTSTSTAYMELSSLRSEDTAVYYCELGQGYWGQGTLVTVSS VL: DIVMTQSPLSNPVTLGQPVSISCRSSKSLLYKDGKTYLNWFLQRPGQSPQLLIYLMSTRASGVPDRFSGGGSGTDFTLKISRVEAEDVGVYYCQQLVEYPLTFGQGTKLEIKR
OUTPUT: met

INPUT: Please check the record HcLc (antibody, human IgG1, kappa, V domains shown, also called chimera of 2A10; 2A10 chimeric antibody) VH: QVQLQQPGTELVKPGASVKLSCKASGYTFTSYWMHWVKQRPGQGLEWIGNINPSNGGTNYNEKFKSKATLTVDKSSSTAYMQLSSLTSEDSAVYYCELGQGYWGQGTLVTVSS VL: DIVITQDELSNPVTSGESVSISCRSSKSLLYKDGKTYLNWFLQRPGQSPQLLIYLMSTRASGVSDRFSGSGSGTDFTLEISRVKAEDVGVYYCQQLVEYPLTFGAGTKLELKR and state if its koff is at or above 0.007 s⁻¹.
OUTPUT: not met

INPUT: API: above_or_equal(metric=koff, cutoff=0.007 s⁻¹) for item H23L16 (antibody, human IgG1, kappa, V domains shown, human gamma1 mutated constant region, human kappa) VH: QVQLVQSGAEVKKPGASVKVSCKASGYTFTSYWMHWVKQRPGQGLEWIGNINPSNGGTNYNEKFKSKATMTVDTSTSTAYMELSSLRSEDTAVYYCELGQGYWGQGTLVTVSS VL: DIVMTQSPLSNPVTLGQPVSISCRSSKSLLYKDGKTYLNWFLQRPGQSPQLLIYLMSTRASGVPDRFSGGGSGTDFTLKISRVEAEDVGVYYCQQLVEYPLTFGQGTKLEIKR
OUTPUT: not met
